Biological target: ^3 H-flunitrazepam binding sites in rat cerebellum (BZ-1) (Rattus norvegicus, UniProt P18508+P62813)
Construct: Cerebral cortex and cerebellum were dissected on ice and homogenized; tissue Charles River Breeding Laboratories (rats)
Assay: ^3 H-flunitrazepam competition binding, rat cerebellum
Measured property: IC50 (nM)
Number in nM, nothing else.

Output measured IC50 for this item: O=C1CN=C(c2ccccc2F)c2cc(Cl)ccc2N1CC(F)(F)F
8.8
